System: Leptosphaeria nodorum (LEPTNO)
Assay: In vitro fungitoxicity of hydrazones with and without copper towards Leptosphaeria nodorum (Example 26)
Assay type: cell-based
Conditions: Parastagonospora nodorum, 72 h, compound 0.05 μg/mL, copper-minus medium, 72 h at 25° C.; read-out: LEPTNO % Inhn. Minus Copper Observed
MEASURED_METRIC: inhibition of growth at 0.05 µg/mL (%)
Give your result in % as a bare value.

Reported inhibition of growth at 0.05 µg/mL of C=CCc1cccc(/C=N/NC(=O)c2ccccc2)c1O : 2.1

Reported inhibition of growth at 0.05 µg/mL of C/C(=N\NC(=O)c1ccc([N+](=O)[O-])cc1)c1ccccc1O : 0.5

Reported inhibition of growth at 0.05 µg/mL of COc1ccc(C(=O)N/N=C/c2cc(Cl)cc(Cl)c2O)cc1 : 0

Reported inhibition of growth at 0.05 µg/mL of COc1ccc(O)c(/C=N/NC(=O)c2ccccc2)c1 : 3.4

Reported inhibition of growth at 0.05 µg/mL of O=C(N/N=C/c1cc(Cl)cc(Cl)c1O)c1cc(Cl)ccc1Cl : 5.9
